target: VAV1 (Homo sapiens, UniProt P15498+Q96SW2); construct: A heterozygous VAV1 C-terminal HiBiT knock-in pool was generated at Monte Rosa Therapeutics from a clonal Jurkat cell; endogenous in cells; host or cells: Jurkat clone stably expressing LgBiT, homozygous GSPT1-G575N; heterozygous VAV1-HiBiT knock-in pool; experiment: VAV1 degradation activity, VAV1-HiBiT knock-in Jurkat luminescence assay (Example A, Table 1); assay type: cell-based; conditions: Jurkat, VAV1-HiBiT knock-in Jurkat cells, luminescence read at 6 and 24 hours; read-out: VAV1 Dmax %
Sequence (P15498 whole entry): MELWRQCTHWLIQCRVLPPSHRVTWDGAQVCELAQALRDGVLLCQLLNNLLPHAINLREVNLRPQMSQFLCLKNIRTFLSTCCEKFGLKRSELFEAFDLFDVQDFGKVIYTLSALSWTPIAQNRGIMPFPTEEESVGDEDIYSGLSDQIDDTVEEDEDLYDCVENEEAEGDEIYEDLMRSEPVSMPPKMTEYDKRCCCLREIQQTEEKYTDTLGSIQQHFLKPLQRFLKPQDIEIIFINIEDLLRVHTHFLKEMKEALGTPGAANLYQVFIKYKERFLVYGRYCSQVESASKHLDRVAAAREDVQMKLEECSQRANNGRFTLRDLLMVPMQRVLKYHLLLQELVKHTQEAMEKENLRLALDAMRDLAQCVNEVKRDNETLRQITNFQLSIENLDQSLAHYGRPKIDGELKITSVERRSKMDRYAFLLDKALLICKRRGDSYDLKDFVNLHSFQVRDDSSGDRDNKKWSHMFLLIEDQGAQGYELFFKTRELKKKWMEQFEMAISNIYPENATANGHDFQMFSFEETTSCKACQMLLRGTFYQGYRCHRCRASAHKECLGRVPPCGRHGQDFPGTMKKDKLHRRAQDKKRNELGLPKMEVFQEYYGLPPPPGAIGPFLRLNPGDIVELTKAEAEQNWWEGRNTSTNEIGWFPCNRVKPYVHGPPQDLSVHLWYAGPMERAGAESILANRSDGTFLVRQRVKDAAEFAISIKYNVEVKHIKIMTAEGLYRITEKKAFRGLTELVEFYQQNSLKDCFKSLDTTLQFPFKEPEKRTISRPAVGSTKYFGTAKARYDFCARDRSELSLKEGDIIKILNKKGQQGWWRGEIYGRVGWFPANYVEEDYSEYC
Sequence (Q96SW2 whole entry): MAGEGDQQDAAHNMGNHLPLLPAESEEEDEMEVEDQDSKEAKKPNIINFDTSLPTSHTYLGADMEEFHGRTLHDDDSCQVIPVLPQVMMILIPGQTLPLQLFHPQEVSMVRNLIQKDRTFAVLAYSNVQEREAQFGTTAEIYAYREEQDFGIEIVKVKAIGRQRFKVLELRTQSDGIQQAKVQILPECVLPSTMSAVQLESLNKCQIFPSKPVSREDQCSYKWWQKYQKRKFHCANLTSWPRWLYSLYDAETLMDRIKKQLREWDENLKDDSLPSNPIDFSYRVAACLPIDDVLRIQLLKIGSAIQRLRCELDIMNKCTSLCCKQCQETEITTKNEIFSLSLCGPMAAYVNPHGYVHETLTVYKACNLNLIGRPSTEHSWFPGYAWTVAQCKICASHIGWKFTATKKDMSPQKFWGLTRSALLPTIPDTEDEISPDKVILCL
Sequence (Q16531 whole entry partner): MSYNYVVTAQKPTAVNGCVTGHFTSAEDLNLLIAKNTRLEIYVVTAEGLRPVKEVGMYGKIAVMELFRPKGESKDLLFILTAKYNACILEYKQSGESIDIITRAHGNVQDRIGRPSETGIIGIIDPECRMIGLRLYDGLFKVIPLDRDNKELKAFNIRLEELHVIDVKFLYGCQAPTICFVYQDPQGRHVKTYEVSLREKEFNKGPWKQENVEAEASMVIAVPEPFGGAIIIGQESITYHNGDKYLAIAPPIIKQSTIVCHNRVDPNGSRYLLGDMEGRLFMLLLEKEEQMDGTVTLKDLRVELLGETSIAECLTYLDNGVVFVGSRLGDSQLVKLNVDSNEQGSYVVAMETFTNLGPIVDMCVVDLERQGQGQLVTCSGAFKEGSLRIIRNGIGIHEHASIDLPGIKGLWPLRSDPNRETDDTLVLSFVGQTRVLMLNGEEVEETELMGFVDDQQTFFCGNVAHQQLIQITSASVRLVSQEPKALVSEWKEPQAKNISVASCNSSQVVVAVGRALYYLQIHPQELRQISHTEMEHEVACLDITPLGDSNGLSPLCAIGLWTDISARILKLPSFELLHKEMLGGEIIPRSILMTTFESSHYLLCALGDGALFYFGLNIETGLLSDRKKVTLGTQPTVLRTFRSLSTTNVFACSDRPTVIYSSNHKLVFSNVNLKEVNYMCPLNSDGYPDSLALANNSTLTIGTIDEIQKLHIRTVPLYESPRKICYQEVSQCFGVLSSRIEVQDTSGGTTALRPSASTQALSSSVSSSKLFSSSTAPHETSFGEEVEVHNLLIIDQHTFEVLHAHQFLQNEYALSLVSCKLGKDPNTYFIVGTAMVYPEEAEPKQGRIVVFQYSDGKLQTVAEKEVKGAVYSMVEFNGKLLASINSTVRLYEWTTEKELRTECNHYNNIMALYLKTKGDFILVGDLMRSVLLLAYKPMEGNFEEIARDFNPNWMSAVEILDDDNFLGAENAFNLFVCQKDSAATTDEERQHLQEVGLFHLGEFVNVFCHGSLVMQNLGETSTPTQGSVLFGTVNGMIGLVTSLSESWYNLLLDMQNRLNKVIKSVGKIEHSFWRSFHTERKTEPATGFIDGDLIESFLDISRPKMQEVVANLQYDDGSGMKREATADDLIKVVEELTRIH
Measured Metric: Dmax (%)

1. Cn1ccc(COc2ccc(-c3ccc(Cl)c(C4CCC(=O)NC4=O)c3Cl)cc2)n1 (centres unmarked) [Compound 146] ... 81.5

(A) Cn1ccc(Cn2c(=O)n(C)c3cc(-c4cccc(C5CCC(=O)NC5=O)c4Cl)ccc32)n1 (centres unmarked) [Compound 363]
(B) O=C1CCC(c2cccc(-c3ccc(C(=O)Nc4ccon4)cc3)c2Cl)C(=O)N1 (centres unmarked) [Compound 230]
(C) O=C1CCC(c2cccc(-c3ccc(C4(N5CCCCC5=O)CC4)cc3)c2Cl)C(=O)N1 (centres unmarked) [Compound 337]
(D) COc1ccc(-c2cccc(C3CCC(=O)NC3=O)c2Cl)cc1C#N (centres unmarked) [Compound 139]
# input Kindly order the items shown according to Dmax, from the highest value down. // ordering of labels required in reply
# output A, B, C, D
(A: 97.1%, B: 58.5%, C: 40%, D: 25.2%)

(P) CC1CCC(=O)N(c2ccc(-c3cccc(C4CCC(=O)NC4=O)c3Cl)cc2)C1 (centres unmarked) [Compound 314]
(Q) O=C1CCC(c2cccc(-c3ccc(C4COC(=O)N4)c(F)c3)c2Cl)C(=O)N1 (centres unmarked) [Compound 107]
# input Compare P and Q and name the one whose reported Dmax is smaller. State your choice using its label.
# output Q
(Q: 27%, P: 96.1%)

(A) C[C@H]1COC(=O)N1c1ccc(-c2cccc(C3CCC(=O)NC3=O)c2Cl)cc1 (some centres unmarked) [Compound 216]
(B) Cn1ccc(CCc2ccc(-c3cccc(C4CCC(=O)NC4=O)c3Cl)cn2)n1 (centres unmarked) [Compound 249]
# input I would appreciate it if you could say which entry, A or B , has the lower Dmax value. Kindly state the label of the option you pick.
# output B

(1) O=C1CC[C@](F)(c2cccc(-c3ccc(N4CCCCC4=O)cc3)c2Cl)C(=O)N1 (single isomer, unassigned) [Compound 367]
(2) CN1CCN(c2ccc(-c3cccc(C4CCC(=O)NC4=O)c3Cl)cc2)C1=O (centres unmarked) [Compound 387]
# input Looking at recorded values for Dmax, does 1 or 2 come in lower? Indicate your choice by writing its label.
# output 2

---

target: VAV1 (Homo sapiens, UniProt P15498+Q96SW2); construct: A heterozygous VAV1 C-terminal HiBiT knock-in pool was generated at Monte Rosa Therapeutics from a clonal Jurkat cell; endogenous in cells; host or cells: Jurkat clone stably expressing LgBiT, homozygous GSPT1-G575N; heterozygous VAV1-HiBiT knock-in pool; assay: VAV1 degradation activity, VAV1-HiBiT knock-in Jurkat luminescence assay (Example A, Table 1); type: cell-based; conditions: VAV1-HiBiT knock-in Jurkat cells, luminescence read at 6 and 24 hours; read-out: VAV1 DC50
Measured Metric: DC50 (µM)

Below, 5 compounds whose answers are already recorded.
1. CC1(C)COC(=O)N1c1ccc(-c2cccc(C3CCC(=O)NC3=O)c2Cl)cc1 (stereo not drawn) [Compound 415] ... 0.00487
2. CN1Cc2cccc(-c3ccc(-c4cccc(C5CCC(=O)NC5=O)c4Cl)cc3)c2S1(=O)=O (stereo not drawn) [Compound 406] ... 0.0259
3. O=C1CCC(c2cccc(-c3ccc(NC(=O)c4ccno4)cc3)c2Cl)C(=O)N1 (stereo not drawn) [Compound 228] ... 0.19
4. Cn1ccc(NCc2ccc(-c3cccc(C4CCC(=O)NC4=O)c3Cl)cc2)n1 (stereo not drawn) [Compound 196] ... 0.00934
5. Cn1ccc(C(F)(F)F)c(-c2ccc(-c3cccc(C4CCC(=O)NC4=O)c3Cl)cc2)c1=O (stereo not drawn) [Compound 428] ... 0.00225

(1) O=C1CCC(c2cccc(-c3ccc(C(=O)Nc4ccon4)cc3)c2Cl)C(=O)N1 (stereo not drawn) [Compound 230]
(2) Cc1cc(C)n(Cc2ccc(-c3cccc(C4CCC(=O)NC4=O)c3Cl)cc2)n1 (stereo not drawn) [Compound 127]
# input For the pair 1 and 2 , which member has the lower DC50 number? Answer with the label corresponding to your selection.
# output 2

(1) O=C1CCC(c2cccc(-c3ccc(Cn4ccccc4=O)cc3)c2F)C(=O)N1 (stereo not drawn) [Compound 149]
(2) O=C1CCC(c2cccc(-c3ccc(N4CCC5(COC5)CC4=O)cc3)c2Cl)C(=O)N1 (stereo not drawn) [Compound 310]
(3) O=C1CCC(c2cccc(-c3ccc(OCCCO)cc3)c2Cl)C(=O)N1 (stereo not drawn) [Compound 117]
(4) Cc1ccn(Cc2ccc(-c3cccc(C4CCC(=O)NC4=O)c3Cl)cc2)c(=O)c1 (stereo not drawn) [Compound 189]
(5) O=C1CCC(c2cccc(-c3ccc(N4C(=O)CCCC45COC5)cc3)c2Cl)C(=O)N1 (stereo not drawn) [Compound 407]
# input Order these by DC50, descending, and give the full ranking. Put the labels in the requested order and list them out.
# output 3, 1, 4, 2, 5

(I) CN1CC(=O)N(c2ccc(-c3cccc(C4CCC(=O)NC4=O)c3Cl)cc2)CC1(C)C (stereo not drawn) [Compound 317]
(II) O=C1CCC(c2cccc(-c3ccc(CN4C(=O)COCC45CC5)cc3)c2Cl)C(=O)N1 (stereo not drawn) [Compound 264]
# input Parameter check: reported DC50 is higher for which label, I or II ? Let me know the label of the one you choose.
# output II
(II: 0.0395 µM, I: 0.0136 µM)

---

target: VAV1 (Homo sapiens, UniProt P15498+Q96SW2); construct: A heterozygous VAV1 C-terminal HiBiT knock-in pool was generated at Monte Rosa Therapeutics from a clonal Jurkat cell; endogenous in cells; host or cells: Jurkat clone stably expressing LgBiT, homozygous GSPT1-G575N; heterozygous VAV1-HiBiT knock-in pool; assay: VAV1 degradation activity, VAV1-HiBiT knock-in Jurkat luminescence assay (Example A, Table 1); format: cell-based; conditions: VAV1-HiBiT knock-in Jurkat cells, luminescence read at 6 and 24 hours; read-out: VAV1 DC50
Measured Metric: DC50 (µM)

// solved cases for DC50 follow
1. O=C1CCC(c2cccc(-c3ccc(Cc4nccc(C(F)F)n4)cc3)c2Cl)C(=O)N1 (stereo not drawn) ... 0.0117
2. O=C1CC[C@](F)(c2cccc(-c3ccc(N4CCCCC4=O)cc3)c2Cl)C(=O)N1 (single isomer, unassigned) ... 0.706

(I) Cn1ccc(Cc2nn(C)c3cc(-c4cccc(C5CCC(=O)NC5=O)c4Cl)ccc23)n1 (stereo not drawn)
(II) CN1CCCN(Cc2ccc(-c3cccc(C4CCC(=O)NC4=O)c3Cl)cn2)C1=O (stereo not drawn)
(III) O=C1CCC(c2cccc(-c3ccc(N4C(=O)COCC45CC5)cc3)c2Cl)C(=O)N1 (stereo not drawn)
(IV) O=C1CCC(c2cccc(-c3ccc(CN4C(=O)CCCC4C(F)(F)F)cc3)c2Cl)C(=O)N1 (stereo not drawn)
# input # sort list by recorded DC50, greatest to least The labels, placed in the requested order, form the answer.
# output II, IV, I, III
(II: 0.182 µM, IV: 0.0326 µM, I: 0.00808 µM, III: 0.00346 µM)

(A) CN1CCCN(c2ccc(-c3cccc(C4CCC(=O)NC4=O)c3Cl)cc2F)C1=O (stereo not drawn)
(B) CC(C)Nc1ccc(-c2cccc(C3CCC(=O)NC3=O)c2Cl)cc1 (stereo not drawn)
(C) Cn1ccc(Cn2c(=O)n(C)c3cc(-c4cccc(C5CCC(=O)NC5=O)c4Cl)ccc32)n1 (stereo not drawn)
# input Rank by DC50 (largest to smallest). Quick reminder: the answer is the labels in the order asked.
# output B, A, C

(a) O=C1CCC(c2cccc(-c3ccc(CCCn4ccccc4=O)cc3)c2Cl)C(=O)N1 (stereo not drawn)
(b) C[C@@H]1COC(=O)N1c1ccc(-c2cccc(C3CCC(=O)NC3=O)c2Cl)cc1 (stereo partly drawn)
(c) COC(=O)c1ccc(Cc2ccc(-c3cccc(C4CCC(=O)NC4=O)c3Cl)cc2)n1C (stereo not drawn)
(d) CN1CC(=O)N(c2ccc(-c3cccc(C4CCC(=O)NC4=O)c3Cl)cc2)c2cccnc21 (stereo not drawn)
# input Order the items by recorded DC50; the first position goes to the largest value. List the labels according to the requested ordering.
# output a, b, c, d

(I) O=C1CCC(c2cccc(-c3ccc(CN4CCOC4=O)cc3)c2Cl)C(=O)N1 (stereo not drawn)
(II) O=C1CCC(c2cccc(-c3ccc(C(=O)Nc4ccno4)cc3)c2Cl)C(=O)N1 (stereo not drawn)
# input Choose between I and II : whose measured DC50 value is numerically larger? Field: selected label. Fill in the label of the entry you choose.
# output II
(II: 7.8 µM, I: 0.105 µM)

Origin of measurements: patent US12257247B2
